Quick reference: pIC50 of the listed items.
molecular target: Mitogen-activated protein kinase 10 (Homo sapiens); experiment: Inhibition of JNK3 by HRTF
Sequence (P53779 whole entry): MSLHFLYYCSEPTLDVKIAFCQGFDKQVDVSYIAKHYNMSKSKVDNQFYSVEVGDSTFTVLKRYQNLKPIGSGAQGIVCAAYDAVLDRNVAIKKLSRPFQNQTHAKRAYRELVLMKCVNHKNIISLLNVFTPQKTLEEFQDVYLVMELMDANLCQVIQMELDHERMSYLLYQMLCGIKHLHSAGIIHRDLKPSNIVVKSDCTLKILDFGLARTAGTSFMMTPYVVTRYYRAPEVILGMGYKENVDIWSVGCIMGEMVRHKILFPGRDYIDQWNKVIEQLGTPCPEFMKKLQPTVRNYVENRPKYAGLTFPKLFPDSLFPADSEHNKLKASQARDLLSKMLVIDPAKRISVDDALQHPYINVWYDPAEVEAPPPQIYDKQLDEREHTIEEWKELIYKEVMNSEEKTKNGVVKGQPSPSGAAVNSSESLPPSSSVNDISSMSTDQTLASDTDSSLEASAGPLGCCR
pIC50: −log10 of the molar value.

| Molecule Smiles | Target Or System | pIC50 |
| --- | --- | --- |
| CC(C)n1cc(-c2ccc3cnc(Nc4ccc(-n5cnc(N6CCOCC6)n5)cc4)nc3c2Cl)cn1 | Mitogen-activated protein kinase 10 (Homo sapiens) | 7.20 |
| Cc1ccc(-c2ccc3cnc(Nc4ccc(-n5cnc(N6CCOCC6)n5)cc4)nc3c2)cn1 | Mitogen-activated protein kinase 10 (Homo sapiens) | 6.14 |
| Cc1ccc(-c2cccc3cnc(Nc4ccc(-n5cnc(C)n5)cc4)nc23)cn1 | Mitogen-activated protein kinase 10 (Homo sapiens) | 7.52 |

* * *

target: Mitogen-activated protein kinase 8 (Homo sapiens); assay: Inhibition of JNK1 by HRTF
Sequence (P45983 whole entry): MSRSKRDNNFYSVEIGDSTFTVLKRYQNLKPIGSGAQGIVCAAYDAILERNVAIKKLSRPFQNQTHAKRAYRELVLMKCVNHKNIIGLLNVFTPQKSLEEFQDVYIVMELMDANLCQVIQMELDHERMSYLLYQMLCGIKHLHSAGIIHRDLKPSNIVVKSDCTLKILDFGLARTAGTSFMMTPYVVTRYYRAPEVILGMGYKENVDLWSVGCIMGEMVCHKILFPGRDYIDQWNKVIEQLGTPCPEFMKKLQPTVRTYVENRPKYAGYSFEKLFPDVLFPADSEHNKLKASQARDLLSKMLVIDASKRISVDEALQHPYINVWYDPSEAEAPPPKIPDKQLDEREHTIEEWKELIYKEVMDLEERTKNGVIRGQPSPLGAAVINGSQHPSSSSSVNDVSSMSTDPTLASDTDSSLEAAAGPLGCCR
pIC50: −log10 of the molar value.
Each record here notes measured pIC50.

| Molecule Smiles | Target Or System | pIC50 |
| --- | --- | --- |
| Cn1cc(-c2ccc3cnc(Nc4ccc(-n5cnc(-c6ccccn6)n5)cc4)nc3c2)cn1 | Mitogen-activated protein kinase 8 (Homo sapiens) | 7.00 |
| Cc1ncn(-c2ccc(Nc3ncc4cccc(-c5nccs5)c4n3)cc2)n1 | Mitogen-activated protein kinase 8 (Homo sapiens) | 8.00 |
| c1ccc(-c2cccc3cnc(Nc4ccc(-n5cnc(N6CCOCC6)n5)cc4)nc23)cc1 | Mitogen-activated protein kinase 8 (Homo sapiens) | 7.30 |

* * *

test: Drug level in mouse plasma at 10 mg/kg, ip after 2 hrs; type: ADME, organism-based; set-up: dose 10 mg/kg, route intraperitoneal; conditions: read-out: Drug uptake
Endpoint Name: log10 concentration at 2 h (log10 of the value in µM)

| Molecule Smiles | Endpoint Result |
| --- | --- |
| c1cc(-n2cnc(N3CCOCC3)n2)ccc1Nc1ncc2ccc(-c3cn[nH]c3)cc2n1 | 1.63 |
| Cn1cc(-c2ccc3cnc(Nc4ccc(-n5cnc(-c6ccccn6)n5)cc4)nc3c2)cn1 | 1.12 |
| Cn1cc(-c2ccc3cnc(Nc4ccc(-n5cnc(N6CCOCC6)n5)cc4)nc3c2C(F)(F)F)cn1 | 0.92 |
| Cn1cc(-c2ccc3cnc(Nc4ccc(-n5cnc(N6CCOCC6)n5)cc4)nc3c2)cn1 | 1.25 |
| Cc1ccc(-c2cccc3cnc(Nc4ccc(-n5cnc(N6CCOCC6)n5)cc4)nc23)cn1 | 0.43 |
| Cc1ccc(-c2cccc3cnc(Nc4ccc5c(c4)OCO5)nc23)cn1 | -0.11 |
| Cc1c(-c2cnn(C)c2)ccc2cnc(Nc3ccc(-n4cnc(N5CCOCC5)n4)cc3)nc12 | 0.87 |
| c1ccc(-c2cccc3cnc(Nc4ccc(-n5cnc(N6CCOCC6)n5)cc4)nc23)cc1 | 0.72 |
| c1cncc(-c2ccc3cnc(Nc4ccc(-n5cnc(N6CCOCC6)n5)cc4)nc3c2)c1 | 1.43 |

* * *

Items are presented alongside their recorded Cmax.
assay: Cmax in rat at 2 mg/kg, po; format: ADME, organism-based; design: dose 2 mg/kg, route oral; details: in vivo

| Molecule Smiles | Unit Of Measurement | Cmax |
| --- | --- | --- |
| Cn1cc(-c2ccc3cnc(Nc4ccc(-n5cnc(N6CCOCC6)n5)cc4)nc3c2Cl)cn1 | nM | 300 |
| Cn1cc(-c2ccc3cnc(Nc4ccc(-n5cnc(N6CCOCC6)n5)cc4)nc3c2)cn1 | nM | 700 |
